Measured values drawn from PubChem BioAssay (NCI) for this set.

# Tested on: NCI/ADR-RES ovarian
# Assay summary: NCI tumour cell line growth inhibition, 48 h
Readings of GI50 for the listed compounds

{"columns": ["Compound", "Target system", "GI50"],
 "data": [
  ["O=C(Nc1ccc(F)cc1)Nc1ccc(Br)c(C(F)(F)F)c1", "NCI/ADR-RES ovarian", "2510 nM"],
  ["N#C/C(=N\\Nc1ccccc1)C(=O)Nc1cc(-c2ccccc2)nn1-c1ccccc1", "NCI/ADR-RES ovarian", "2830 nM"],
  ["CC([C@H]1CC=C2C3CCC4=C[C@@H](N(C)C)CC[C@]4(C)C3CC[C@@]21C)N(C)C (stereo not given in full)", "NCI/ADR-RES ovarian", "4250 nM"],
  ["O=C(/C=C1\\C(=O)N(Cc2ccccc2)c2ccccc21)c1ccc(OCCN2CCCCC2)cc1", "NCI/ADR-RES ovarian", "3140 nM"],
  ["Cn1nc(C(F)(F)F)c(-c2cc(C(F)(F)F)cc(C(F)(F)F)c2)c1-c1ccc(OCc2ccc(Cl)cc2)cc1O", "NCI/ADR-RES ovarian", "2810 nM"],
  ["COc1ccc(/C=C2\\SC(=Nc3ccccc3)NC2=O)cc1", "NCI/ADR-RES ovarian", "4610 nM"],
  ["COc1ccc(/C(C#N)=C/c2cc(OC)c(OC)c(OC)c2)cc1", "NCI/ADR-RES ovarian", "13200 nM"],
  ["O=C(c1ccccc1)c1c(C(F)(F)F)n([O-])c2cc(C(F)(F)F)ccc2[n+]1=O", "NCI/ADR-RES ovarian", "2010 nM"],
  ["CN(C)CCCC1(c2ccc(F)cc2)OCc2cc(-c3cc4ccccc4s3)ccc21 (stereo not given)", "NCI/ADR-RES ovarian", "1740 nM"],
  ["CC(C)c1cccc(O)c(=O)c1", "NCI/ADR-RES ovarian", "4.5 µg/mL"]
]}

----------
# System: MALME-3M melanoma
# Assay summary: NCI tumour cell line growth inhibition, 48 h
Is TGI at least 30 µM? Then Criterion met. If not, Criterion not met.

{"columns": ["Molecule", "Class"],
 "data": [
  ["COc1ccc(-c2ncn(C[Si](C)(C)C)c2-c2ccc(OC)cc2)cc1", "Criterion not met"],
  ["CCOc1ccc(NCC2CC/C(=C\\c3ccccc3OC)C2=O)cc1 (stereo not given)", "Criterion not met"],
  ["CCOC(=O)C12C(C(=O)OC)=C(C)N(NC(=O)Nc3ccccc3)C1(N)N(NC(=O)Nc1ccccc1)C(C)=C2C(=O)OC (stereo not given)", "Criterion met"],
  ["CC(C)C(=O)/C=C/S/C=C/C(=O)C(C)C", "Criterion not met"],
  ["N#Cc1cc(Sc2ccc(N)c(C#N)c2)ccc1N", "Criterion met"]
]}

----------
Measured TGI, listed per entry for reference.
# Tested on: K-562 leukemia
# Assay summary: NCI tumour cell line growth inhibition, 48 h

{"columns": ["Compound", "TGI"],
 "data": [
  ["CC(=O)NC(CSC1=C2NC(=O)\\C=C/C=C/C=C\\C(C)C(O)CC(=O)/C(C)=C\\CC(O)/C=C/C(C)C(O)C(C)C=C(C)C(=O)c3c(O)c(C)cc(c3C1=O)C2=O)C(=O)O (stereo not given)", "> 100 µM"],
  ["O=C(Nc1ccccc1-c1nn(CN2CCNCC2)c(=S)n(CN2CCNCC2)c1=O)C(F)(F)F", "59 µM"],
  ["Cc1cc(C)c(C(=O)O)c(SSc2cc(C)cc(C)c2C(=O)O)c1", "> 100 µM"],
  ["COc1cc(NS(C)(=O)=O)ccc1NCc1c2ccccc2nc2ccccc12", "> 100 µM"],
  ["NCCCNOCCCN", "> 100 µM"],
  ["O=C(CI)Nc1ccc(O)c2ccccc12", "> 100 µM"],
  ["CC(=O)NNc1nc(C)c(C(=O)/C=C/c2ccc(Cl)cc2)s1", "> 100 µM"],
  ["Cc1ccc2nc3cc(C)c(=O)cc-3sc2c1", "> 100 µM"],
  ["COc1cccc2cc(C(=O)Nc3ccccc3)c(=N)oc12", "> 100 µM"],
  ["COC(=O)C(Cc1c[nH]c2ccccc12)NP(=O)(O)OCC1OC(n2cc(Br)c(=O)[nH]c2=O)CC1O (stereo not given)", "> 100 µM"],
  ["Nn1c(=O)[nH]c2ncn(Cc3ccccc3)c2c1=O", "> 100 µM"],
  ["Cc1ccc(N=Nc2c(O)ccc3cc(S(=O)(=O)O)ccc23)cc1", "> 100 µM"],
  ["C=C1C(=O)O[C@H]2[C@H]1CC/C(Cn1cc(-c3ccc(F)cc3)nn1)=C\\CC[C@@]1(C)O[C@@H]21", "4.84 µM"],
  ["COc1ccc(NC(=O)c2sc3nc(C)c(C(=O)/C=C/c4cccc(OC)c4)cc3c2N)cc1", "> 50 µM"],
  ["CC1=NOC(=O)/C1=C/c1ccc([N+](=O)[O-])cc1", "> 100 µM"],
  ["Cc1c(C)c(C)c(-n2c(=O)n(C)c(=O)n2-c2cc(C(C)(C)C)cc(C(C)(C)C)c2O)c(C)c1C", "27.2 µM"],
  ["O=C(N/N=C\\c1cccc2ccccc12)Nc1cccc2ccccc12", "15.6 µM"],
  ["CCCCCCCC(=O)SCC/C=C/[C@@H]1CC(=O)NCc2nc(cs2)C2=N[C@@](C)(CS2)C(=O)N[C@@H](C(C)C)C(=O)N1", "> 100 µM"],
  ["O=C(Nc1ccccc1Cl)c1ccc([N+](=O)[O-])cc1", "> 100 µM"],
  ["COc1cc(OC)c(OC)cc1/C=C/c1cnnc2ccccc12", "> 10 µM"]
]}

----------
# System: PC-3 prostate
# Assay summary: NCI tumour cell line growth inhibition, 48 h
Readout type: TGI

{"columns": ["Molecule", "Target system", "Data value"],
 "data": [
  ["CC([C@H]1CC=C2C3CCC4=C[C@@H](N(C)C)CC[C@]4(C)C3CC[C@@]21C)N(C)C (stereo not given in full)", "PC-3 prostate", "7.72 µM"],
  ["O=c1c2cnccc2cc2c3ccccc3ccn12", "PC-3 prostate", "> 100 µM"],
  ["CN1Cc2cc(O)c(O)cc2C(O)C1 (stereo not given)", "PC-3 prostate", "> 100 µM"],
  ["CC(=O)C(C(C)=O)[C@@H]1OC(C)(C)O[C@@H]1[C@H]1COC(C)(C)O1", "PC-3 prostate", "> 100 µM"],
  ["CC(=O)NC(CSC1=C2NC(=O)\\C=C/C=C/C=C\\C(C)C(O)CC(=O)/C(C)=C\\CC(O)/C=C/C(C)C(O)C(C)C=C(C)C(=O)c3c(O)c(C)cc(c3C1=O)C2=O)C(=O)O (stereo not given)", "PC-3 prostate", "> 100 µM"],
  ["CC1(C)C2CCC1C(=O)[C@@]1(C=CC(=O)CC1)C2 (stereo not given in full)", "PC-3 prostate", "> 100 µM"],
  ["O=C(C/C(=N/O)C(F)(F)F)c1cccs1", "PC-3 prostate", "> 100 µM"],
  ["O=C(OC1CN2CCC1CC2)N(c1ccccc1)c1ccccc1 (stereo not given)", "PC-3 prostate", "> 100 µM"],
  ["C/C=C(\\C)C(=O)O[C@@H]1CC(C)(C)CC2C3=CCC4[C@]56CC[C@](O)(OC5)C(C)(C)C6CC[C@@]4(C)C3(C)CC[C@]21C(=O)O (stereo not given in full)", "PC-3 prostate", "> 100 µM"],
  ["CCN(CC)CC1CN=C(N)O1 (stereo not given)", "PC-3 prostate", "> 100 µM"],
  ["CC(C)C(=O)c1c(C(F)(F)F)n([O-])c2cc(F)c(F)cc2[n+]1=O", "PC-3 prostate", "1.13 µM"],
  ["NC(N)=NC(N)=NCCCc1ccco1", "PC-3 prostate", "> 500 µM"],
  ["O=C(CN1CCCCC1)Nc1ccc2c(c1)C1Oc3ccccc3CC1CO2 (stereo not given)", "PC-3 prostate", "35 µM"],
  ["CC1(C)OC(=O)C(C#N)=C1C[n+]1ccccc1", "PC-3 prostate", "> 10 µM"],
  ["Nc1ccc(COC(O)CN2CCCCC2)cc1[N+](=O)[O-] (stereo not given)", "PC-3 prostate", "> 100 µM"],
  ["O=C(c1ccco1)c1c(C(F)(F)F)n([O-])c2cc(C(F)(F)F)ccc2[n+]1=O", "PC-3 prostate", "0.559 µM"],
  ["O=c1oc2cc(OC/C(=N/O)c3ccc(F)cc3)ccc2c2ccccc12", "PC-3 prostate", "49.1 µM"],
  ["CN1CCc2c(sc3ncn(Nc4ccc(Cl)cc4)c(=N)c23)C1", "PC-3 prostate", "> 100 µM"],
  ["COc1ccc(NC(C(N)=O)c2cc3cc(Br)ccc3nc2Cl)cc1 (stereo not given)", "PC-3 prostate", "> 100 µM"],
  ["Cc1c(Cl)cccc1N=NC(=O)NNc1cccc(Cl)c1C", "PC-3 prostate", "26.1 µM"],
  ["C[n+]1c2ccccc2nc2ccccc21", "PC-3 prostate", "12 µM"],
  ["CCCCCC[C@@H](C)NC(=O)c1ccc(Nc2nc3ccccc3c3occc23)cc1", "PC-3 prostate", "> 100 µM"],
  ["CC(C)(C)NC(=O)/C(=C\\Sc1ccccc1)c1ccccc1", "PC-3 prostate", "> 100 µM"],
  ["COC(=O)c1c(C)cccc1C1CN=NC12Cc1cc(C)cc(C)c1C2=O (stereo not given)", "PC-3 prostate", "> 100 µM"],
  ["Cc1ccc(N=Nc2c(O)ccc3cc(S(=O)(=O)O)ccc23)cc1", "PC-3 prostate", "> 100 µM"],
  ["CO/N=C(\\C([O-])=N\\[n+]1cnn(CC(=O)OC(C)(C)C)c1)c1csc(NC(c2ccccc2)(c2ccccc2)c2ccccc2)n1", "PC-3 prostate", "> 10 µM"],
  ["CCCCCCCC/C=C1\\CCC(CN2CCOCC2)C1=O (stereo not given)", "PC-3 prostate", "23.7 µM"],
  ["CC(=O)O[C@H]1C(=O)[C@@]2(C)[C@H]([C@H](OC(=O)c3ccccc3)[C@]3(O)C[C@H](OC(=O)[C@H](O)[C@@H](NC(=O)c4ccccc4)c4cccc(N(C)C)c4)C(C)=C1C3(C)C)[C@]1(OC(C)=O)CO[C@@H]1C[C@@H]2O", "PC-3 prostate", "12.4 µM"],
  ["O=CN1N=C(c2cccc(Nc3ccnc4cc(Cl)ccc34)c2)CC1c1ccccc1 (stereo not given)", "PC-3 prostate", "42.7 µM"],
  ["CC(=O)OC12c3ccccc3-c3ccccc3C1C(C(=O)O)C2C(=O)O (stereo not given)", "PC-3 prostate", "> 10 µM"],
  ["CCCCc1ccc(Nc2nc(Cl)c3c(ncn3C3CC(Oc4ccc(C)cc4)C(COc4ccc(C)cc4)O3)n2)cc1 (stereo not given)", "PC-3 prostate", "> 100 µM"],
  ["C=CCOC(=O)N1c2ccc(O)cc2[C@@]23O[C@@]24[C@@H]1C#C/C=C\\C#C[C@]3(O)C(OC)(OC)C[C@@H]4C", "PC-3 prostate", "77.6 µM"],
  ["Cc1ccc(S(=O)(=O)N/N=C2\\CC3CC4CCC2C4C3)cc1 (stereo not given)", "PC-3 prostate", "> 100 µM"],
  ["CN(C)CCNC(=O)c1cccc2nc3c(C(=O)NCCN(C)C)cccc3nc12", "PC-3 prostate", "2.67 µM"],
  ["CCN(CC)c1ccc(/C=C2\\CCc3ccc([N+](=O)[O-])cc3C2=O)cc1", "PC-3 prostate", "> 100 µM"],
  ["C=C1SC(=Nc2ccccc2Cl)N(C(=O)c2sc3ccccc3c2Cl)C12CCCCC2", "PC-3 prostate", "> 100 µM"],
  ["COC(=O)c1c2c(cc3c1CC1(Cc4cc5c(c(C(C)=O)c4C1)CCCC5)C3)CCCC2 (stereo not given)", "PC-3 prostate", "> 100 µM"],
  ["CCCCSC1=N/C(=C\\c2ccc(N(C)C)cc2)C(=O)N1", "PC-3 prostate", "19.3 µM"],
  ["O=c1[nH]nc(Nc2ccccc2)c2nnn(C3CCCCC3)c12", "PC-3 prostate", "> 100 µM"],
  ["CCSc1nc(=S)n(-c2ccccc2)c(C)c1C(C)=O", "PC-3 prostate", "> 100 µM"],
  ["Nc1nc(SCc2ccccc2Cl)cc(C(=O)O)n1", "PC-3 prostate", "> 100 µM"],
  ["Cc1cc2c(cc1C)C(=O)C1(C2)Cc2cc3c(cc2C1=O)CCC3 (stereo not given)", "PC-3 prostate", "> 100 µM"],
  ["C=CCOC(OCC=C)/C(Br)=C/C", "PC-3 prostate", "> 100 µM"],
  ["COC(=O)c1cn(CC(O)CCl)nn1 (stereo not given)", "PC-3 prostate", "> 100 µM"],
  ["Cc1cc(OCCOCCC(F)(F)P(=O)(O)O)ccc1CCc1cnc2c(N)nc3cc(CCC(=O)O)ccc3c2c1", "PC-3 prostate", "> 100 µM"]
]}
